Assay: CCTE_Shafer_MEA_acute_burst_number: CCTE's Neural Acute Assay for Single-Electrode Bursts, Shafer Lab (AID 2284013)
Calls of active or inactive are those of the source. The calls were made as follows: active = hit-call score of the fitted dose curve at least 0.9, where 1 is the maximum; inactive = score below 0.9.
// classify into active, inactive

Some solved entries appear below for comparison.
molecule	group label
Clc1ccccc1-c1nnc(-c2ccccc2Cl)nn1	inactive
CC[C@H](C)[C@H]1O[C@]2(C=C[C@@H]1C)C[C@@H]1C[C@@H](C/C=C(\C)[C@@H](O[C@H]3C[C@H](OC)[C@@H](O[C@H]4C[C@H](OC)[C@@H](O)[C@H](C)O4)[C@H](C)O3)[C@@H](C)/C=C/C=C3\CO[C@@H]4[C@H](O)C(C)=C[C@@H](C(=O)O1)[C@]34O)O2 (tested in a mixture with another compound)	active
CCCN(CCOc1c(Cl)cc(Cl)cc1Cl)C(=O)n1ccnc1	active
N#CN	inactive

Qu. Record request — test call for CCC(C)Nc1c([N+](=O)[O-])cc(C(C)(C)C)cc1[N+](=O)[O-] (centres undefined)
Ans. inactive

Qu. Record request — test call for Oc1cc(Cl)ccc1Oc1ccc(Cl)cc1Cl
Ans. active

Qu. Record request — test call for CCC(C)(C)C(=O)OC1=C(c2ccc(Cl)cc2Cl)C(=O)OC12CCCCC2
Ans. inactive

Qu. Record request — test call for N#Cc1c(Cl)c(Cl)c(Cl)c(C#N)c1Cl
Ans. inactive

Qu. Record request — test call for O=C(O)CCCOc1ccc(Cl)cc1Cl
Ans. inactive

Hello, the source for this data is PubChem BioAssay (EPA / NIEHS), in case you need it.
